# EXPERIMENTAL_TARGET: h-cGAS (Homo sapiens)
# Sequence (Q8N884 whole entry): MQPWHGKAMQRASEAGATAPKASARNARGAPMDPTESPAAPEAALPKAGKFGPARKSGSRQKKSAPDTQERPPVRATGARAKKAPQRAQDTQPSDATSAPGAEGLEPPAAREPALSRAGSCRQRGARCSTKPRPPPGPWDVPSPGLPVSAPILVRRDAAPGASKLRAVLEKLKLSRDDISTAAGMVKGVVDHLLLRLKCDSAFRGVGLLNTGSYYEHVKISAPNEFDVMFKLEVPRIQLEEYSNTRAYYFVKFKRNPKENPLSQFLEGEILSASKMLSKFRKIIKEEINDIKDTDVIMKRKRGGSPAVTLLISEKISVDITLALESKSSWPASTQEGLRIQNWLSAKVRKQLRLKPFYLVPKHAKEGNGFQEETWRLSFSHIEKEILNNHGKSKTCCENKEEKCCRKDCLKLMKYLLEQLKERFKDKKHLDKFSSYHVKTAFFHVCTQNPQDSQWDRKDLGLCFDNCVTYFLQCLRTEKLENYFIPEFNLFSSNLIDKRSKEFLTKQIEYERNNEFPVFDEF
# EXPERIMENT_SUMMARY: Cell-free human cGAS enzyme inhibition assay (ATP depletion, Kinase-Glo Max)
# Format: biochemical
# STUDY_CONDITIONS: 3 h; read-out: h-cGAS, conc. 10 μM
OUTCOME_MEASURE: inhibition at 10 µM

## Input Please state recorded inhibition at 10 µM (tested on h-cGAS (Homo sapiens)) of O=C(CO)N1CCc2oc3c(Cl)c(Cl)ccc3c2C1
## Output 25 to 49%

## Input Please state recorded inhibition at 10 µM (tested on h-cGAS (Homo sapiens)) of NCC(=O)N1CCc2oc3c(Cl)c(Cl)cc(-c4cncnc4)c3c2C1
## Output 50 to 74%

----------
# EXPERIMENT_SUMMARY: Metabolic stability in mouse liver microsomes
# STUDY_CONDITIONS: mouse, liver microsomes
OUTCOME_MEASURE: half-life (min)
Write down the numeric answer in min and omit the unit.

## Input Report half-life for Cn1cc(-c2cc(Cl)c(Cl)c3oc4c(c23)CN(C(=O)CN)CC4)cn1 [Compound 33] please.
## Output 142

## Input Report half-life for O=C(O)Cc1ccccc1Nc1c(Cl)cccc1Cl [Diclofenac, reference compound] please.
## Output 38

## Input Report half-life for Cn1cc(-c2cc(Cl)c(Cl)c3sc4c(c23)CN(C(=O)CO)CC4)cn1 [Compound 48] please.
## Output 2

----------
# EXPERIMENTAL_TARGET: m-cGAS (Mus musculus, UniProt Q8C6L5)
# Sequence (Q8C6L5 whole entry): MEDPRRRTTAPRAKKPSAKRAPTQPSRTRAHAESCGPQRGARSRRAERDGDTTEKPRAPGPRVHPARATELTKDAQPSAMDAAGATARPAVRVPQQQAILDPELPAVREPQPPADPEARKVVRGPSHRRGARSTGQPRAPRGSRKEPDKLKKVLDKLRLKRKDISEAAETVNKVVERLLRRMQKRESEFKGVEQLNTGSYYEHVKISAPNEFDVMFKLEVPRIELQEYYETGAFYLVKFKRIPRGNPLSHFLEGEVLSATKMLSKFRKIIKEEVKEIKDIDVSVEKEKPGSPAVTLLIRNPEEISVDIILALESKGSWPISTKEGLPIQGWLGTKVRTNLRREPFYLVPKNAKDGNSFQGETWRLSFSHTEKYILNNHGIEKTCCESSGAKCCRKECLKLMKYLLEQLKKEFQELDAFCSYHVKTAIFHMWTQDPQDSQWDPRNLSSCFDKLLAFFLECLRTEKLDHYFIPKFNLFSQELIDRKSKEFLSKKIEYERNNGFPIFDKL
# EXPERIMENT_SUMMARY: Cell-free mouse cGAS enzyme inhibition assay (ATP depletion, Kinase-Glo Max)
# Type: biochemical
# STUDY_CONDITIONS: 1 h; read-out: m-cGAS, conc. 10 μM
OUTCOME_MEASURE: inhibition at 10 µM

1) Cn1cc(-c2cc(Cl)c(Cl)c3c2c2c(n3C)CCN(C(=O)CN)C2)cn1
25 to 49%

## Input Please state recorded inhibition at 10 µM (tested on m-cGAS (Mus musculus, UniProt Q8C6L5)) of Cn1ccc(-c2cc(Cl)c(Cl)c3c2c2c(n3C)CCN(C(=O)C(C)(C)O)C2)n1
## Output 0 to 24%

## Input Please state recorded inhibition at 10 µM (tested on m-cGAS (Mus musculus, UniProt Q8C6L5)) of NCC(=O)N1CCc2c(sc3c(Cl)c(Cl)cc(-c4ccco4)c23)C1
## Output 75 to 100%

## Input Please state recorded inhibition at 10 µM (tested on m-cGAS (Mus musculus, UniProt Q8C6L5)) of Cc1ccn(-c2cc(Cl)c(Cl)c3sc4c(c23)CCN(C(=O)CN)C4)n1
## Output 25 to 49%

## Input Please state recorded inhibition at 10 µM (tested on m-cGAS (Mus musculus, UniProt Q8C6L5)) of Nc1ccc(-c2cc(Cl)c(Cl)c3[nH]c4c(c23)CN(C(=O)[C@@H]2CCCN2)CC4)cn1
## Output 0 to 24%

## Input Please state recorded inhibition at 10 µM (tested on m-cGAS (Mus musculus, UniProt Q8C6L5)) of Cn1c2c(c3c(-c4ccc(N)nc4)cc(Cl)c(Cl)c31)CN(C(=O)C1CCCN1)CC2 (stereo not shown)
## Output 0 to 24%

## Input Please state recorded inhibition at 10 µM (tested on m-cGAS (Mus musculus, UniProt Q8C6L5)) of NCC(=O)N1CCc2c(sc3c(Cl)c(Cl)cc(-c4nccs4)c23)C1
## Output 50 to 74%

## Input Please state recorded inhibition at 10 µM (tested on m-cGAS (Mus musculus, UniProt Q8C6L5)) of CC(C)(C)OC(=O)N1CCCC1C(=O)N1CCc2[nH]c3c(Cl)c(Cl)cc(-c4ccc(N)nc4)c3c2C1 (stereo not shown)
## Output 0 to 24%

## Input Please state recorded inhibition at 10 µM (tested on m-cGAS (Mus musculus, UniProt Q8C6L5)) of NCC(=O)N1CCc2c(sc3c(Cl)c(Cl)cc(-c4ccsc4)c23)C1
## Output 50 to 74%

----------
# EXPERIMENTAL_TARGET: m-cGAS (Mus musculus)
# EXPERIMENT_SUMMARY: Cell-free mouse cGAS enzyme inhibition assay (ATP depletion, Kinase-Glo Max)
# Format: biochemical
# STUDY_CONDITIONS: 1 h; read-out: m-cGAS, conc. 1 μM
OUTCOME_MEASURE: inhibition at 1 µM

1. Cn1ccc(-c2cc(Cl)c(Cl)c3sc4c(c23)CCN(C(=O)CO)C4)n1
0 to 24%
2. Cc1csc(-c2cc(Cl)c(Cl)c3sc4c(c23)CCN(C(=O)CN)C4)n1
0 to 24%
3. O=C(CO)N1CCc2[nH]c3c(Cl)c(Cl)cc(O)c3c2C1
75 to 100%
4. NCC(=O)N1CCc2sc3c(Cl)c(Cl)cc(-c4cncnc4)c3c2C1
0 to 24%
5. Cn1cc(-c2cc(Cl)c(Cl)c3sc4c(c23)CCN(C(=O)CN)C4)cn1
25 to 49%
6. NCC(=O)N1CCc2c(sc3c(Cl)c(Cl)cc(-c4cccnc4)c23)C1
25 to 49%

Okay, now this compound:
## Input Report inhibition at 1 µM for NCC(=O)N1CCc2c(sc3c(Cl)c(Cl)cc(-c4cncnc4)c23)C1 please.
## Output 0 to 24%

----------
Recorded inhibition at 10 µM values for a group of compounds are listed next.
# EXPERIMENTAL_TARGET: m-cGAS (Mus musculus)
# EXPERIMENT_SUMMARY: Cell-free mouse cGAS enzyme inhibition assay (ATP depletion, Kinase-Glo Max)
# Format: biochemical
# STUDY_CONDITIONS: 1 h; read-out: m-cGAS, conc. 10 μM

1. Nc1ccc(-c2cc(Cl)c(Cl)c3sc4c(c23)CN(C(=O)CO)CC4)cn1
25 to 49%

## Input Report inhibition at 10 µM for O=C(CO)N1CCc2[nH]c3c(Cl)c(Cl)cc(O)c3c2C1 please.
## Output 75 to 100%

## Input Report inhibition at 10 µM for NCC(=O)N1CCc2c(sc3c(Cl)c(Cl)cc(-c4cc[nH]n4)c23)C1 please.
## Output 75 to 100%

## Input Report inhibition at 10 µM for Cn1cc(-c2cc(Cl)c(Cl)c3sc4c(c23)CCN(C(=O)CN)C4)cn1 please.
## Output 75 to 100%

## Input Report inhibition at 10 µM for O=C(CO)N1CCc2c(sc3c(Cl)c(Cl)ccc23)C1 please.
## Output 75 to 100%

----------
# EXPERIMENTAL_TARGET: h-cGAS (Homo sapiens)
# EXPERIMENT_SUMMARY: Cell-free human cGAS enzyme inhibition assay (ATP depletion, Kinase-Glo Max)
# Assay type: biochemical
# STUDY_CONDITIONS: 3 h; read-out: h-cGAS, conc. 10 μM
Recorded inhibition at 10 µM values for a group of molecules are listed next.

1. NCC(=O)N1CCc2c(sc3c(Cl)c(Cl)cc(-c4cccs4)c23)C1 [Compound 81]
50 to 74%
2. O=C(CO)N1CCc2c(sc3c(Cl)c(Cl)cc(-c4cc[nH]n4)c23)C1 [Compound 61]
25 to 49%

## Input Report inhibition at 10 µM for CC(C)(N)C(=O)N1CCc2[nH]c3c(Cl)c(Cl)cc(-c4cc[nH]n4)c3c2C1 [Compound 20] please.
## Output 75 to 100%

## Input Report inhibition at 10 µM for Nc1ccc(-c2cc(Cl)c(Cl)c3sc4c(c23)CN(C(=O)CO)CC4)cn1 [Compound 49] please.
## Output 0 to 24%

## Input Report inhibition at 10 µM for NCC(=O)N1CCc2c(sc3c(Cl)c(Cl)cc(-c4ncccn4)c23)C1 [Compound 89] please.
## Output 50 to 74%

## Input Report inhibition at 10 µM for NCC(=O)N1CCc2c(oc3c(Cl)c(Cl)cc(-c4cncnc4)c23)C1 [Compound 39] please.
## Output 75 to 100%

## Input Report inhibition at 10 µM for O=C(CO)N1CCc2oc3c(Cl)c(Cl)cc(-c4ccco4)c3c2C1 [Compound 30] please.
## Output 50 to 74%

## Input Report inhibition at 10 µM for CC(C)(N)C(=O)N1CCc2c(sc3c(Cl)c(Cl)cc(-c4cn[nH]c4)c23)C1 [Compound 85] please.
## Output 50 to 74%

----------
# EXPERIMENT_SUMMARY: Pharmacokinetic study, plasma and brain PK parameters after I.P. dosing
# Format: in vivo, mouse
# STUDY_CONDITIONS: mouse, ip; plasma; 25 mg/Kg I.P.; read-out: MRTInf_obs (plasma)
# Method: To test pharmacokinetics, TDI-6570 ([…] solution in water containing 0.2% Tween 80) was administered to 8-weeks old CD-1 male mice (n=3 for each time point) intraperitoneally (IP) and both plasma (EDTA-K2) and brain tissues were collected at various time points (0.5, 2, 4, 8 and 24 hours post drug administration). Transcardial perfusion were performed with saline prior to brain collection. Bioanalysis of brain tissue and plasma extracts were performed by LC-MS/MS.
Recorded MRT inf values for a group of compounds are listed next.
Write down the numeric answer in h and omit the unit.

1) Cn1cc(-c2cc(Cl)c(Cl)c3sc4c(c23)CN(C(=O)CO)CC4)cn1
4.95

Okay, now this compound:
## Input Report MRT inf for O=C(CO)N1CCc2c(sc3c(Cl)c(Cl)cc(-c4cn[nH]c4)c23)C1 please.
## Output 4.76
